assay: Non-competitive inhibition of rat intestinal maltase using maltose as substrate assessed as dissociation of enzyme-substrate-inhibitor complex at 0.1 to 1 mg/ml by secondary plot analysis
experimental-readout: pKi
Give bare numbers, as −log10 of the molar value.

If you can, please state the reported pKi value of `COc1cc([C@@H]2OC[C@@H]3[C@H]2CO[C@H]3c2ccc(O)c(OC)c2)ccc1O` .
2.87

---

assay: Competitive inhibition of rat intestinal maltase using maltose as substrate assessed as dissociation of enzyme-inhibitor complex at 0.1 to 1 mg/ml by Dixon plot analysis
experimental-readout: Ki (µM)
Numbers only, in µM.

If you can, please state the reported Ki value of `COc1cc([C@@H]2OC[C@@H]3[C@H]2CO[C@H]3c2ccc(O)c(OC)c2)ccc1O` .
288
